Entry source: PubChem BioAssay

assay_details: growth inhibition, single agent or in combination, cell-based, chromothripsis tumors, cisplatin or BGB combos (AID 1671449);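 further: cells exposed for 96 hours; 0% = vehicle DMSO and 100% = killing by high DMSO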
assay_context: LFS_MB_P medulloblastoma cells, measured here: combination with cisplatin, at 5 µM, stronger effect = higher value
Non-standard residues stand in square brackets, D forms with d. Residues, ends and D or L forms follow the SMILES beside them. Dolaproine = CO[C@@H]([C@@H]1CCCN1)[C@@H](C)C(=O)O; Dil = CC[C@H](C)[C@H](NC)[C@@H](CC(=O)O)OC; NMeV = CN[C@H](C(=O)O)C(C)C
value_kind: inhibition (%)
Output spec: scalar in %, unitless text.

{"compound": "NC(=O)c1cccc2[nH]c(-c3ccc(C4CCCN4)cc3F)nc12 (stereo not given)", "recorded_number": 58.1}
{"compound": "Cc1ccc(NC(=O)CCCCCC(=O)Nc2ccccc2N)cc1", "recorded_number": 65.8}
{"compound": "Cc1cc(C)cc(C(=O)NOCCCCCC(=O)NO)c1", "recorded_number": 101}
{"compound": "CC(C)OC(=O)[C@H](C)NP(=O)(OC[C@H]1O[C@@H](n2ccc(=O)[nH]c2=O)C(C)(F)[C@@H]1O)Oc1ccccc1 (stereo not given in full)", "recorded_number": -25.1}
{"compound": "CC[C@H](C)[C@@H]([C@@H](CC(=O)N1CCC[C@H]1[C@H](OC)[C@@H](C)C(=O)N[C@@H](Cc1ccccc1)C(=O)O)OC)N(C)C(=O)[C@@H](NC(=O)[C@@H](NC)C(C)C)C(C)C (H-[NMeV]V[Dil][Dolaproine]F-OH)", "recorded_number": 13.5}
{"compound": "Nc1ccn(C2CCC(CO)O2)c(=O)n1 (stereo not given)", "recorded_number": -13}
{"compound": "C=C1CCC(O)CC1=CC=C1CCCC2(C)C1CCC2C(C)C=CC(C)C(C)C (stereo not given)", "recorded_number": -80.9}
{"compound": "O=c1[nH]c(=O)n(C2CC(O)C(CO)O2)cc1I (stereo not given)", "recorded_number": 2.43}
{"compound": "Cc1c(Br)cc(NCC(=O)N/N=C/c2cc([N+](=O)[O-])ccc2O)cc1Br", "recorded_number": 49.2}
{"compound": "C#CCC(CCCCCC)C(=O)O (stereo not given)", "recorded_number": -9.45}

Let us examine a further case.
O=c1[nH]c(=S)[nH]c2nc(-c3ccccc3)c(-c3ccccc3)nc12 yielded inhibition of -30.5

---

Below is a list of entries, each paired with its recorded survival value.
assay_details: compounds altering viability of human ES cells (AID 493140);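 further: cells exposed to compounds for four days before counting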
assay_context: human embryonic stem cell survival screen; stronger effect = higher value
Calls of active or inactive are those of the source. The rule behind the calls is not given here.

{"compound": "CCCCC[C@H](O)/C=C/[C@@H]1[C@H]2C/C(=C/CCCC(=O)O)C[C@H]2C[C@H]1O", "survival": "59.9 (inactive)"}

API: the following record is the query input.
The recorded survival for CCCCCCCCCCCCC/C=C/[C@@H](O)[C@@H](N)COP(=O)(O)O is 87.9 (inactive)

---

assay_details: drug combination growth inhibition, ovarian cancer – cell-based, oncology-focused library, rucaparib conditional, profiling panel (AID 1508598)
assay_context: patient-derived ovarian cancer cells, CellTiter-Glo viability, 144 h; at 0.0195 µM; OCI-C5x cells; without rucaparib
Active and inactive are the calls of the source.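 The calls were made as follows: active = normalized viability below 100% at a tested concentration; inactive = the rest.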
Field 'call' accepts label 1 (active), label 0 (inactive)

Record excerpt, results attached:
{"molecule": "OCCn1cc(-c2ccc3c(c2)CCC3=NO)c(-c2ccncc2)n1", "group": "label 0"}
{"molecule": "C[C@@]12CC[C@H]3c4ccc(O)cc4C[C@@H](CCCCCCCCCS(=O)CCCC(F)(F)C(F)(F)F)[C@H]3[C@@H]1CC[C@@H]2O (stereo partly specified)", "group": "label 0"}
{"molecule": "CO[C@H]1C[C@H]2CC[C@@H](C)[C@@](O)(O2)C(=O)C(=O)N2CCCC[C@H]2C(=O)O[C@H]([C@H](C)C[C@@H]2CC[C@H](OC(=O)C(C)(CO)CO)[C@H](OC)C2)CC(=O)[C@H](C)/C=C(\\C)[C@@H](O)[C@@H](OC)C(=O)[C@H](C)C[C@H](C)/C=C/C=C/C=C/1C", "group": "label 1"}
{"molecule": "CCOC(=O)c1[nH]c2cc(Cl)ccc2c1C(C(=O)NC(C)(C)C)N(C=O)Cc1ccc(Cl)cc1 (stereo unspecified)", "group": "label 0"}
{"molecule": "CC1(C)C=C(CN2C/C(=C/c3ccc(F)cc3)C(=O)/C(=C/c3ccc(F)cc3)C2)C(C)(C)N1O", "group": "label 0"}

As a next step, examine the molecule that follows.
INPUT: Would you mind telling me which call this test gave C=CCNC1=C2C[C@@H](C)C[C@H](OC)[C@H](O)[C@@H](C)/C=C(\C)[C@H](OC(N)=O)[C@@H](OC)/C=C\C=C(\C)C(=O)NC(=CC1=O)C2=O ?
OUTPUT: label 0
